Each recorded value in this set is attributed to the supplement of paper PMC10627819.

tested on: S. aureus Newman; assay: fitness (endpoint OD595 vs no drug) (fraction); higher = more growth; settings: first compound 18.75 µg/mL; partner 0.25 µg/mL; main component drawn;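 further: OD595 on entry to stationary phase over no-drug wells; at most 1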
parameter-measured: fitness
Numbers only.

Look over these answered cases.
CC[C@H](C)[C@H](N)C1=N[C@H](C(=O)N[C@@H](CC(C)C)C(=O)N[C@H](CCC(=O)O)C(=O)N[C@H](C(=O)N[C@H]2CCCCNC(=O)[C@H](CC(N)=O)NC(=O)[C@@H](CC(=O)O)NC(=O)[C@H](Cc3cnc[nH]3)NC(=O)[C@@H](Cc3ccccc3)NC(=O)[C@H]([C@@H](C)CC)NC(=O)[C@@H](CCCN)NC2=O)[C@@H](C)CC)CS1 [Bacitracin] + CC1=C(C(=O)O)N2C(=O)[C@@H](NC(=O)[C@H](N)c3ccccc3)[C@H]2SC1 [Cephalexin] :: 0.798
CC[C@H](C)[C@H](N)C1=N[C@H](C(=O)N[C@@H](CC(C)C)C(=O)N[C@H](CCC(=O)O)C(=O)N[C@H](C(=O)N[C@H]2CCCCNC(=O)[C@H](CC(N)=O)NC(=O)[C@@H](CC(=O)O)NC(=O)[C@H](Cc3cnc[nH]3)NC(=O)[C@@H](Cc3ccccc3)NC(=O)[C@H]([C@@H](C)CC)NC(=O)[C@@H](CCCN)NC2=O)[C@@H](C)CC)CS1 [Bacitracin] + Cn1nnc(-c2ccc(-c3ccc(N4C[C@H](CO)OC4=O)cc3F)cn2)n1 [Tedizolid] :: 0.0222

Next compound, fitness to be filled in.
Prompt line: Reported fitness, compound CC[C@H](C)[C@H](N)C1=N[C@H](C(=O)N[C@@H](CC(C)C)C(=O)N[C@H](CCC(=O)O)C(=O)N[C@H](C(=O)N[C@H]2CCCCNC(=O)[C@H](CC(N)=O)NC(=O)[C@@H](CC(=O)O)NC(=O)[C@H](Cc3cnc[nH]3)NC(=O)[C@@H](Cc3ccccc3)NC(=O)[C@H]([C@@H](C)CC)NC(=O)[C@@H](CCCN)NC2=O)[C@@H](C)CC)CS1 [Bacitracin] + CO/N=C(\C(=O)N[C@@H]1C(=O)N2C(C(=O)[O-])=C(C[N+]3(C)CCCC3)CS[C@H]12)c1csc(N)n1 [Cefepime] : ____
Response line: 0.634

---

system: B. subtilis 168; assay: fitness (endpoint OD595 vs no drug) (fraction); higher = more growth; settings: first compound 75 µg/mL; partner 0.125 µg/mL; main component drawn
parameter-measured: fitness

Look over these answered cases.
CC[C@H](C)[C@H](N)C1=N[C@H](C(=O)N[C@@H](CC(C)C)C(=O)N[C@H](CCC(=O)O)C(=O)N[C@H](C(=O)N[C@H]2CCCCNC(=O)[C@H](CC(N)=O)NC(=O)[C@@H](CC(=O)O)NC(=O)[C@H](Cc3cnc[nH]3)NC(=O)[C@@H](Cc3ccccc3)NC(=O)[C@H]([C@@H](C)CC)NC(=O)[C@@H](CCCN)NC2=O)[C@@H](C)CC)CS1 [Bacitracin] + COc1cc(Cc2cnc(N)nc2N)cc(OC)c1OC [Trimethoprim] :: 0.593
CC[C@H](C)[C@H](N)C1=N[C@H](C(=O)N[C@@H](CC(C)C)C(=O)N[C@H](CCC(=O)O)C(=O)N[C@H](C(=O)N[C@H]2CCCCNC(=O)[C@H](CC(N)=O)NC(=O)[C@@H](CC(=O)O)NC(=O)[C@H](Cc3cnc[nH]3)NC(=O)[C@@H](Cc3ccccc3)NC(=O)[C@H]([C@@H](C)CC)NC(=O)[C@@H](CCCN)NC2=O)[C@@H](C)CC)CS1 [Bacitracin] + CC1=C(C(=O)O)N2C(=O)[C@@H](NC(=O)[C@H](N)c3ccccc3)[C@H]2SC1 [Cephalexin] :: 0.884
CC[C@H](C)[C@H](N)C1=N[C@H](C(=O)N[C@@H](CC(C)C)C(=O)N[C@H](CCC(=O)O)C(=O)N[C@H](C(=O)N[C@H]2CCCCNC(=O)[C@H](CC(N)=O)NC(=O)[C@@H](CC(=O)O)NC(=O)[C@H](Cc3cnc[nH]3)NC(=O)[C@@H](Cc3ccccc3)NC(=O)[C@H]([C@@H](C)CC)NC(=O)[C@@H](CCCN)NC2=O)[C@@H](C)CC)CS1 [Bacitracin] + COc1c(N2C[C@@H]3CCCN[C@@H]3C2)c(F)cc2c(=O)c(C(=O)O)cn(C3CC3)c12 [Moxifloxacin] :: 0.0158
CC[C@H](C)[C@H](N)C1=N[C@H](C(=O)N[C@@H](CC(C)C)C(=O)N[C@H](CCC(=O)O)C(=O)N[C@H](C(=O)N[C@H]2CCCCNC(=O)[C@H](CC(N)=O)NC(=O)[C@@H](CC(=O)O)NC(=O)[C@H](Cc3cnc[nH]3)NC(=O)[C@@H](Cc3ccccc3)NC(=O)[C@H]([C@@H](C)CC)NC(=O)[C@@H](CCCN)NC2=O)[C@@H](C)CC)CS1 [Bacitracin] + CCC[C@@H]1C[C@@H](C(=O)N[C@@H]([C@H]2O[C@H](SC)[C@H](O)[C@@H](O)[C@H]2O)[C@H](C)Cl)N(C)C1 [Clindamycin] :: 0.364

Prompt line: What measured fitness is associated with CC[C@H](C)[C@H](N)C1=N[C@H](C(=O)N[C@@H](CC(C)C)C(=O)N[C@H](CCC(=O)O)C(=O)N[C@H](C(=O)N[C@H]2CCCCNC(=O)[C@H](CC(N)=O)NC(=O)[C@@H](CC(=O)O)NC(=O)[C@H](Cc3cnc[nH]3)NC(=O)[C@@H](Cc3ccccc3)NC(=O)[C@H]([C@@H](C)CC)NC(=O)[C@@H](CCCN)NC2=O)[C@@H](C)CC)CS1 [Bacitracin] + C[C@H]1COc2c(N3CCN(C)CC3)c(F)cc3c(=O)c(C(=O)O)cn1c23 [Levofloxacin] on B. subtilis 168?
Response line: 0.0256
